Read-out: ABC Transporter (ABCB1), ABCB1 (gene 5243)
Assay: CLD_ABCB1_24hr: CellzDirect (CLD) Gene Expression Assay for ABC Transporter (ABCB1) at 24 hours (AID 2283684)
Method: CLD_24hr is a cell-based, multiplexed-readout assay that uses hepatocyte, a human liver primary cell, with measurements taken at 24 hours after chemical dosing in a 96-well plate.CLD_ABCB1_24hr is one of 16 assay component(s) measured or calculated from the CLD_24hr assay. […] Furthermore, this assay endpoint can be referred to as a primary readout. […]
Inconclusive results are not listed. Activity calls are given as the source filed them. Rule for the calls: active = hit-call score of the fitted dose curve at least 0.9, where 1 is the maximum; inconclusive = response in the unintended direction; inactive = score below 0.9.
Select the correct class. Options are Yes for active, No for inactive and nothing else.

stdin: Answer briefly: the call reported for `C=CCOC(=O)C(C)(C)OC(=O)c1cc(-n2c(=O)cc(C(F)(F)F)n(C)c2=O)ccc1Cl` in this assay.
stdout: No

stdin: Answer briefly: the call reported for `COC(=O)N(C(=O)N1CO[C@@]2(C(=O)OC)Cc3cc(Cl)ccc3C2=N1)c1ccc(OC(F)(F)F)cc1` in this assay.
stdout: No

stdin: Answer briefly: the call reported for `COP(=S)(OC)SCn1nnc2ccccc2c1=O` in this assay.
stdout: No

stdin: Answer briefly: the call reported for CCCCC(C#N)(Cn1cncn1)c1ccc(Cl)cc1 (stereo not drawn) in this assay.
stdout: No

stdin: Answer briefly: the call reported for `COc1cc(Cl)c(OC)cc1Cl` in this assay.
stdout: No

stdin: Answer briefly: the call reported for CCCN(CC)CC1COC2(CCC(C(C)(C)C)CC2)O1 (stereo not drawn) in this assay.
stdout: No

stdin: Answer briefly: the call reported for `Nc1cnn(-c2ccccc2)c(=O)c1Cl` in this assay.
stdout: No

stdin: Answer briefly: the call reported for `CC1(C)CON(Cc2ccccc2Cl)C1=O` in this assay.
stdout: No

stdin: Answer briefly: the call reported for CCCCC(O)(Cn1cncn1)c1ccc(Cl)cc1Cl (stereo not drawn) in this assay.
stdout: Yes

stdin: Answer briefly: the call reported for `O=C(Nc1ccccc1-c1ccc(Cl)cc1)c1cccnc1Cl` in this assay.
stdout: No

stdin: Answer briefly: the call reported for `CCNC(=O)NC(=O)C(C#N)=NOC` in this assay.
stdout: No

stdin: Answer briefly: the call reported for `CCSC(=O)N1CCCCCC1` in this assay.
stdout: No

stdin: Answer briefly: the call reported for `COC(=O)c1c(C(F)F)nc(C(F)(F)F)c(C2=NCCS2)c1CC(C)C` in this assay.
stdout: No

----------
read-out: growth arrest and DNA damage 45 (GADD45G), GADD45G (gene 10912); test: LTEA_HepaRG_GADD45G: Life Technologies and Expression Analysis (LTEA) Assay for growth arrest and DNA damage 45 (GADD45G) using HepaRG (AID 2283499); settings: mRNA level, 48 h; actives raise or lower the signal
Activity calls are given as the source filed them. How the source made its calls: active means hit-call score of the fitted dose curve at least 0.9, where 1 is the maximum; inactive means score below 0.9.
measured property: AC50

• CC(C)=CC1C(C(=O)OCc2coc(Cc3ccccc3)c2)C1(C)C (stereo not drawn) = inactive
• Cc1ccc(N=CN(C)C=Nc2ccc(C)cc2C)c(C)c1 = inactive
• CC1(C)C(C(=O)OC(C#N)c2cccc(Oc3ccccc3)c2)C1(C)C (stereo not drawn) = inactive
• CC(C)NC(=O)N1CC(=O)N(c2cc(Cl)cc(Cl)c2)C1=O = 50 µM (active)
• COP(=O)(OC)O/C(C)=C/C(=O)N(C)C = inactive

stdin: Fill in AC50 for record CCC(C)n1c(=O)[nH]c(C)c(Br)c1=O (stereo not drawn)
stdout: 30.4 µM (active)

stdin: Fill in AC50 for record `CCOc1nc(C(Cl)(Cl)Cl)ns1`
stdout: inactive

stdin: Fill in AC50 for record `COC(=O)NC(=S)Nc1ccccc1NC(=S)NC(=O)OC`
stdout: inactive

stdin: Fill in AC50 for record `O=C(O)c1c(Cl)ccc2cc(Cl)cnc12`
stdout: inactive

stdin: Fill in AC50 for record `Clc1cccc(C(Cl)(Cl)Cl)n1`
stdout: inactive

stdin: Fill in AC50 for record `CN/C(=N\[N+](=O)[O-])NCc1cnc(Cl)s1`
stdout: inactive

stdin: Fill in AC50 for record `Cc1cc(C)nc(Nc2ccccc2)n1`
stdout: inactive

stdin: Fill in AC50 for record `CCOP(=S)(OCC)Oc1nc(Cl)n(C(C)C)n1`
stdout: inactive
